Where these numbers come from: paper PMC12677842

Target: human 20S proteasome (h20S core particle)
Experiment: fluorogenic AMC peptide cleavage by purified h20S (activation; Ch-L EC50 […], T-L EC50 […])
experimental_endpoint: EC50 (µM)
Field: numeric (µM). Do not append units.

Query :: Can you look up the measured EC50 of CCCCC1(COC(=O)CCC(=O)O)C(=O)N(c2ccccc2)N(c2ccccc2)C1=O [SB, suxibuzone] for me?
Result :: 4.4
